# protocol-text: Pharmacokinetic study in mice
# Type: in vivo
# particulars: female, ICR, mouse, plasma, iv, 10 mg/kg, intravenous 10 mg/kg, 0.5 h, mice 1-8 in order; read-out: plasma concentration, individual mice
reported-endpoint: concentration at 0.5 h (ng/mL)

[[record]]
molecule = "C=C[C@]1(C)C[C@@H](OC(=O)CSc2ccccc2N)[C@]2(C)[C@H](C)CC[C@]3(CCC(=O)[C@H]32)[C@@H](C)[C@@H]1O"
reported_endpoint = "concentration at 0.5 h"
u = "ng/mL"
recorded_result = 2650


====

# protocol-text: Pharmacokinetic study in mice
# Format: in vivo
# particulars: female, ICR, mouse, plasma, iv, 10 mg/kg, intravenous 10 mg/kg, 4 h, mice 1-8 in order; read-out: plasma concentration, individual mice
reported-endpoint: concentration at 4 h (ng/mL)

[[record]]
compound = "C=C[C@]1(C)C[C@@H](OC(=O)CSc2ccccc2N)[C@]2(C)[C@H](C)CC[C@]3(CCC(=O)[C@H]32)[C@@H](C)[C@@H]1O [Amphenmulin]"
reported_endpoint = "concentration at 4 h"
u = "ng/mL"
recorded_result = 850


Values from paper PMC7071076
